Reference source: paper PMC10180488

Target: human PPARγ- LBD (Homo sapiens)
Sequence (P37231 238-503 limits assumed): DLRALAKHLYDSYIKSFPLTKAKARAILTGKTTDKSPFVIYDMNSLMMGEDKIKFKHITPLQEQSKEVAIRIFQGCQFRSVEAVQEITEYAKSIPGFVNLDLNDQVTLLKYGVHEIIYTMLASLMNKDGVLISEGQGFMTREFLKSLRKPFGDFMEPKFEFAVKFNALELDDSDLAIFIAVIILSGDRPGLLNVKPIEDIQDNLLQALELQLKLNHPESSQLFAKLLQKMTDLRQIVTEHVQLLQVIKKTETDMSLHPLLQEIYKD
For each record, write down the corresponding IC50.
Give bare numbers, in µM.

smiles: C=CCc1ccc(OCC(=O)Nc2cccc(C(F)(F)F)c2)c(OC)c1
assayed-system: human PPARγ- LBD (Homo sapiens)
unit-tag: µM
IC50: 6.47
--
smiles: C=CCc1ccc(OCC(=O)Nc2ccc([N+](=O)[O-])cc2)c(OC)c1
assayed-system: human PPARγ- LBD (Homo sapiens)
unit-tag: µM
IC50: 42.4
--
smiles: C=CCc1ccc(OCC(=O)Nc2ccccc2C)c(OC)c1
assayed-system: human PPARγ- LBD (Homo sapiens)
unit-tag: µM
IC50: 8.2
--
smiles: C=CCc1ccc(OCC(=O)Nc2cccc(Cl)c2)c(OC)c1
assayed-system: human PPARγ- LBD (Homo sapiens)
unit-tag: µM
IC50: 11.5

Look up IC50 for the entries below, preserving their order.
1. C=CCc1ccc(OCC(=O)Nc2ccccc2)c(OC)c1
2. C=CCc1ccc(OCC(=O)Nc2ccccc2Cl)c(OC)c1

Response:
[29.8, 5.15]
